# target desc: 5-HT reuptake (Homo sapiens, UniProt P31645)
# Construct: in a system with neurological tissue under physiological conditions
# Sequence (P31645 whole entry): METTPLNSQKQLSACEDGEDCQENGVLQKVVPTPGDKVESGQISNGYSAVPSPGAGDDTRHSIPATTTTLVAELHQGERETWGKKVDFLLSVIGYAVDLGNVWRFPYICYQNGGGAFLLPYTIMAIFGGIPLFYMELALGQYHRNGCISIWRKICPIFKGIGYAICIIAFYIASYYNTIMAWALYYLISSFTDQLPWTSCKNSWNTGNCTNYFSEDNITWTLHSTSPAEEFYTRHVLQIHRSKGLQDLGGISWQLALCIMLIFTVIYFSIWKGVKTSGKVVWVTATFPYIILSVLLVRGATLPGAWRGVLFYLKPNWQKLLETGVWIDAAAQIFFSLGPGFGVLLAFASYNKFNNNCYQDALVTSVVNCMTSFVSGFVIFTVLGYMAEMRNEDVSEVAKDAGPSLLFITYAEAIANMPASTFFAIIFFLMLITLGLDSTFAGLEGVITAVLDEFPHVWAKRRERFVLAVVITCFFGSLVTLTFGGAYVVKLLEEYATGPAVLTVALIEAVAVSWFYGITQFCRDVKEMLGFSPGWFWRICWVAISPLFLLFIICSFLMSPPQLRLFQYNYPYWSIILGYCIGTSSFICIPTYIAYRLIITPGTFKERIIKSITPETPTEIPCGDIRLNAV
# test details: Functional measurement of the 5-HT uptake / inhibition of serotonin uptake (tritium-marked 5-HT, neurological tissue)
# experimental context: uptake of tritium-marked 5-HT in neurological tissue under physiological conditions; three independent tests
measured metric: Ki (nM)
The reply should contain only the number, in nM.

Query: Would you mind telling me what Ki value was observed for CNCCOC(c1ccccc1)c1ccnn1C (stereo not shown) ?
Result: 530
